Reference for the values: patent US8759318B2

- Tested on: HCV replicon (Genotype 1b)
- EXPERIMENT DESCRIPTION: Luciferase genotype 1b replicon potency assay
- ASSAY CONTEXT: Hepatitis C virus, GETYPE1B, read-out: IC50 μM, HCV genotype 1b luciferase replicon, Renilla luciferase reporter
VALUE TYPE: IC50 (µM)
Give bare numbers, in µM.

COc1nc(N)nc2c1ncn2C1O[C@H](COP(=O)(N[C@H](C(=O)OCC(C)(C)C)C(C)C)Oc2cccc3ccccc23)[C@@H](O)[C@@]1(C)O (stereo partly drawn)    0.21

Quick batch: IC50 for everything below.
1. CCOc1nc(N)nc2c1ncn2C1O[C@H](COP(=O)(N[C@@H](C)C(=O)OC2CCOCC2)Oc2cccc3ccccc23)[C@@H](O)[C@@]1(C)O (stereo partly drawn)
2. COc1nc(N)nc2c1ncn2C1O[C@H](COP(=O)(N[C@@H](C)C(=O)OCC(C)(C)C)Oc2ccccc2)[C@@H](O)[C@@]1(C)O (stereo partly drawn)

0.059
0.049
